# System: NCI-H1651
# Test: relative viability (nuclei count vs DMSO), 5 days (fraction); higher = more cells survive
# Run Conditions: first compound 0.01 µM
Kindly state relative viability for each of the entries shown.
Numbers only.

Supply reported relative viability belonging to this molecule: Cc1cn(-c2cc(NC(=O)c3ccc(C)c(Nc4nccc(-c5cccnc5)n4)c3)cc(C(F)(F)F)c2)cn1 [Nilotinib] + N=C(N)NC(=N)NCCc1ccccc1 [Phenformin] (partner 250 µM)
0.437

Provide each entry's relative viability from the list below.
1. Cc1cn(-c2cc(NC(=O)c3ccc(C)c(Nc4nccc(-c5cccnc5)n4)c3)cc(C(F)(F)F)c2)cn1 [Nilotinib] + C[C@@H](Oc1cc(-c2cnn(C3CCNCC3)c2)cnc1N)c1c(Cl)ccc(F)c1Cl [Crizotinib] (partner 1 µM)
2. Cc1cn(-c2cc(NC(=O)c3ccc(C)c(Nc4nccc(-c5cccnc5)n4)c3)cc(C(F)(F)F)c2)cn1 [Nilotinib] + CS(=O)(=O)CCNCc1ccc(-c2ccc3ncnc(Nc4ccc(OCc5cccc(F)c5)c(Cl)c4)c3c2)o1 [Lapatinib] (partner 2 µM)
3. Cc1cn(-c2cc(NC(=O)c3ccc(C)c(Nc4nccc(-c5cccnc5)n4)c3)cc(C(F)(F)F)c2)cn1 [Nilotinib] + CC(=O)Nc1cccc(-n2c(=O)n(C3CC3)c(=O)c3c(Nc4ccc(I)cc4F)n(C)c(=O)c(C)c32)c1 [Trametinib] (partner 0.02 µM)
4. Cc1cn(-c2cc(NC(=O)c3ccc(C)c(Nc4nccc(-c5cccnc5)n4)c3)cc(C(F)(F)F)c2)cn1 [Nilotinib] + O=C(c1cc(Cc2n[nH]c(=O)c3ccccc23)ccc1F)N1CCN(C(=O)C2CC2)CC1 [Olaparib] (partner 8 µM)
5. Cc1cn(-c2cc(NC(=O)c3ccc(C)c(Nc4nccc(-c5cccnc5)n4)c3)cc(C(F)(F)F)c2)cn1 [Nilotinib] + CS(=O)(=O)N1CCN(Cc2cc3nc(-c4cccc5[nH]ncc45)nc(N4CCOCC4)c3s2)CC1 [Pictilisib] (partner 1 µM)

1: 1; 2: 1.06; 3: 0.951; 4: 0.168; 5: 0.638

* * *

Kindly state relative viability for each of the entries shown.
# System: LC-2-ad
# Test: relative viability (nuclei count vs DMSO), 5 days (fraction); higher = more cells survive
# Run Conditions: first compound 0.06325 µM
Give bare numbers.

Supply reported relative viability belonging to this compound: CCNC(=O)c1noc(-c2cc(C(C)C)c(O)cc2O)c1-c1ccc(CN2CCOCC2)cc1 [Luminespib] + CC1(C)CCC(c2ccc(Cl)cc2)=C(CN2CCN(c3ccc(C(=O)NS(=O)(=O)c4ccc(N[C@H](CCN5CCOCC5)CSc5ccccc5)c(S(=O)(=O)C(F)(F)F)c4)cc3)CC2)C1 [Navitoclax] (partner 0.5 µM)
0.0848

Okay, next one:
Supply reported relative viability belonging to this compound: CCNC(=O)c1noc(-c2cc(C(C)C)c(O)cc2O)c1-c1ccc(CN2CCOCC2)cc1 [Luminespib] + CS(=O)(=O)CCNCc1ccc(-c2ccc3ncnc(Nc4ccc(OCc5cccc(F)c5)c(Cl)c4)c3c2)o1 [Lapatinib] (partner 2 µM)
0.498

* * *

# System: NCI-H2347
# Test: relative viability (nuclei count vs DMSO), 5 days (fraction); higher = more cells survive
# Run Conditions: first compound 0.1 µM
Kindly state relative viability for each of the entries shown.
One number for each entry.

Here's what some known entries look like.
Supply reported relative viability belonging to this molecule: Cc1cn(-c2cc(NC(=O)c3ccc(C)c(Nc4nccc(-c5cccnc5)n4)c3)cc(C(F)(F)F)c2)cn1 [Nilotinib] + Nc1ncn([C@H]2C[C@H](O)[C@@H](CO)O2)c(=O)n1 [Decitabine] (partner 2 µM)
0.601

Supply reported relative viability belonging to this molecule: Cc1cn(-c2cc(NC(=O)c3ccc(C)c(Nc4nccc(-c5cccnc5)n4)c3)cc(C(F)(F)F)c2)cn1 [Nilotinib] + CCNC(=O)c1noc(-c2cc(C(C)C)c(O)cc2O)c1-c1ccc(CN2CCOCC2)cc1 [Luminespib] (partner 0.01 µM)
0.598

Supply reported relative viability belonging to this molecule: Cc1cn(-c2cc(NC(=O)c3ccc(C)c(Nc4nccc(-c5cccnc5)n4)c3)cc(C(F)(F)F)c2)cn1 [Nilotinib] + NC(=O)Nc1cc(-c2cccc(F)c2)sc1C(=O)N[C@H]1CCCNC1 [AZD7762] (partner 0.2 µM)
0.596

Okay, next one:
Supply reported relative viability belonging to this molecule: Cc1cn(-c2cc(NC(=O)c3ccc(C)c(Nc4nccc(-c5cccnc5)n4)c3)cc(C(F)(F)F)c2)cn1 [Nilotinib] + CC(=O)Nc1cccc(-n2c(=O)n(C3CC3)c(=O)c3c(Nc4ccc(I)cc4F)n(C)c(=O)c(C)c32)c1 [Trametinib] (partner 0.02 µM)
0.271

* * *

# Test system: NCI-H2126
# Test: relative viability (nuclei count vs DMSO), 5 days (fraction); higher = more cells survive
# Run Conditions: first compound 0.03162 µM
Kindly state relative viability for each of the entries shown.
One number for each entry.

Find the measured relative viability of Cc1cn(-c2cc(NC(=O)c3ccc(C)c(Nc4nccc(-c5cccnc5)n4)c3)cc(C(F)(F)F)c2)cn1 [Nilotinib] + Cc1cc(Nc2cc(N3CCN(C)CC3)nc(Sc3ccc(NC(=O)C4CC4)cc3)n2)n[nH]1 [Tozasertib] (partner 0.1 µM) with NCI-H2126 as test system.
0.599

Okay, next one:
Find the measured relative viability of Cc1cn(-c2cc(NC(=O)c3ccc(C)c(Nc4nccc(-c5cccnc5)n4)c3)cc(C(F)(F)F)c2)cn1 [Nilotinib] + O=C(CCCCCCC(=O)Nc1ccccc1)NO [Vorinostat] (partner 1 µM) with NCI-H2126 as test system.
0.764

* * *

Kindly state relative viability for each of the entries shown.
# Tested on: NCI-H2126
# Test: relative viability (nuclei count vs DMSO), 5 days (fraction); higher = more cells survive
# Run Conditions: first compound 0.1 µM
Give bare numbers.

Here's what some known entries look like.
Supply reported relative viability belonging to this compound: Cc1cn(-c2cc(NC(=O)c3ccc(C)c(Nc4nccc(-c5cccnc5)n4)c3)cc(C(F)(F)F)c2)cn1 [Nilotinib] + Nc1ncn([C@H]2C[C@H](O)[C@@H](CO)O2)c(=O)n1 [Decitabine] (partner 2 µM)
0.568

Supply reported relative viability belonging to this compound: Cc1cn(-c2cc(NC(=O)c3ccc(C)c(Nc4nccc(-c5cccnc5)n4)c3)cc(C(F)(F)F)c2)cn1 [Nilotinib] + Nc1nc2[nH]cc(CCc3ccc(C(=O)N[C@@H](CCC(=O)O)C(=O)O)cc3)c2c(=O)[nH]1 [Pemetrexed] (partner 0.2 µM)
0.47

Supply reported relative viability belonging to this compound: Cc1cn(-c2cc(NC(=O)c3ccc(C)c(Nc4nccc(-c5cccnc5)n4)c3)cc(C(F)(F)F)c2)cn1 [Nilotinib] + O=C(c1cc(Cc2n[nH]c(=O)c3ccccc23)ccc1F)N1CCN(C(=O)C2CC2)CC1 [Olaparib] (partner 8 µM)
0.83

Provide each entry's relative viability from the list below.
1. Cc1cn(-c2cc(NC(=O)c3ccc(C)c(Nc4nccc(-c5cccnc5)n4)c3)cc(C(F)(F)F)c2)cn1 [Nilotinib] + Cc1nc(Nc2ncc(C(=O)Nc3c(C)cccc3Cl)s2)cc(N2CCN(CCO)CC2)n1 [Dasatinib] (partner 0.075 µM)
2. Cc1cn(-c2cc(NC(=O)c3ccc(C)c(Nc4nccc(-c5cccnc5)n4)c3)cc(C(F)(F)F)c2)cn1 [Nilotinib] + O=C(CCCCCCC(=O)Nc1ccccc1)NO [Vorinostat] (partner 1 µM)
3. Cc1cn(-c2cc(NC(=O)c3ccc(C)c(Nc4nccc(-c5cccnc5)n4)c3)cc(C(F)(F)F)c2)cn1 [Nilotinib] + Cc1cc(Nc2cc(N3CCN(C)CC3)nc(Sc3ccc(NC(=O)C4CC4)cc3)n2)n[nH]1 [Tozasertib] (partner 0.1 µM)

[0.459, 0.476, 0.438]

* * *

# Test system: ChaGo-K-1
# Test: relative viability (nuclei count vs DMSO), 5 days (fraction); higher = more cells survive
# Run Conditions: first compound 0.2 µM
Response field label: string, one of rule met (relative viability strictly below 0.4) or rule not met.

Decide: relative viability of CCNC(=O)c1noc(-c2cc(C(C)C)c(O)cc2O)c1-c1ccc(CN2CCOCC2)cc1 [Luminespib] + O=C(c1cc(Cc2n[nH]c(=O)c3ccccc23)ccc1F)N1CCN(C(=O)C2CC2)CC1 [Olaparib] (partner 8 µM) strictly below 0.4?
rule met

Decide: relative viability of CN1CCN(CCOc2cc(OC3CCOCC3)c3c(Nc4c(Cl)ccc5c4OCO5)ncnc3c2)CC1 [Saracatinib] + CC(C)C[C@H](NC(=O)[C@H](Cc1ccccc1)NC(=O)c1cnccn1)B(O)O [Bortezomib] (partner 0.002 µM) strictly below 0.4?
rule not met

Decide: relative viability of CCNC(=O)c1noc(-c2cc(C(C)C)c(O)cc2O)c1-c1ccc(CN2CCOCC2)cc1 [Luminespib] + Cc1cc(Nc2cc(N3CCN(C)CC3)nc(Sc3ccc(NC(=O)C4CC4)cc3)n2)n[nH]1 [Tozasertib] (partner 0.1 µM) strictly below 0.4?
rule met

More entries:
Decide: relative viability of CN1CCN(CCOc2cc(OC3CCOCC3)c3c(Nc4c(Cl)ccc5c4OCO5)ncnc3c2)CC1 [Saracatinib] + COc1cccc2cc(-c3nc([C@H]4CC[C@H](C(=O)O)CC4)n4ncnc(N)c34)[nH]c12 [OSI-027] (partner 0.5 µM) strictly below 0.4?
rule not met

Source listed as the supplement of paper PMC10307832.
